Biological target: Substance-K receptor (Cavia porcellus)
Sequence (Q64077 whole entry): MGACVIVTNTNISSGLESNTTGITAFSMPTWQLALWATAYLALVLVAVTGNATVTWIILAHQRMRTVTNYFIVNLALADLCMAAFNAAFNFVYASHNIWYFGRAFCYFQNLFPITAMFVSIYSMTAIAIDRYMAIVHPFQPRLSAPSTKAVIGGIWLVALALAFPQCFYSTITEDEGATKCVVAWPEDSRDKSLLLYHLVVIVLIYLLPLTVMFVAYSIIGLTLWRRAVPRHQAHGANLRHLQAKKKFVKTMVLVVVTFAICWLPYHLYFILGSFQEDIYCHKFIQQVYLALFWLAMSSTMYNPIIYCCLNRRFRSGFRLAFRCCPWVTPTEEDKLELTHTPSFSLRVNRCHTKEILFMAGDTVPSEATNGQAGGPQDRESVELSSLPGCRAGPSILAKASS
Test: ChEBML_142706
Please respond with reported pIC50 for every item in the list.
Notebook: values listed as pIC50 are -log10 of the concentration (mol/L).

QUERY: What value of measured pIC50 is listed for COc1cc(C(=O)N2CO[C@](CCN3CCC(C(N)=O)(c4ccccc4)CC3)(c3ccc(Cl)c(Cl)c3)C2)cc(OC)c1OC ?
RESULT: 7.04

QUERY: Same lookup for COc1cc(C(=O)N2CO[C@](CCN3CCC4(CC3)c3ccccc3C[S+]4[O-])(c3ccc(Cl)c(Cl)c3)C2)cc(OC)c1OC (stereo partly drawn) , please.
RESULT: 8.12

QUERY: Same lookup for COc1cc(C(=O)N2CO[C@](CCN3CCC4(CC3)C(=O)N(C)c3ccccc34)(c3ccc(Cl)c(Cl)c3)C2)cc(OC)c1OC , please.
RESULT: 7.47

Reference source: BindingDB's records for doi:10.1016/s0960-894x(99)00093-1
